TARGET_SYSTEM: 5-hydroxytryptamine receptor 2C (Homo sapiens, UniProt P28335)
Sequence (P28335 whole entry): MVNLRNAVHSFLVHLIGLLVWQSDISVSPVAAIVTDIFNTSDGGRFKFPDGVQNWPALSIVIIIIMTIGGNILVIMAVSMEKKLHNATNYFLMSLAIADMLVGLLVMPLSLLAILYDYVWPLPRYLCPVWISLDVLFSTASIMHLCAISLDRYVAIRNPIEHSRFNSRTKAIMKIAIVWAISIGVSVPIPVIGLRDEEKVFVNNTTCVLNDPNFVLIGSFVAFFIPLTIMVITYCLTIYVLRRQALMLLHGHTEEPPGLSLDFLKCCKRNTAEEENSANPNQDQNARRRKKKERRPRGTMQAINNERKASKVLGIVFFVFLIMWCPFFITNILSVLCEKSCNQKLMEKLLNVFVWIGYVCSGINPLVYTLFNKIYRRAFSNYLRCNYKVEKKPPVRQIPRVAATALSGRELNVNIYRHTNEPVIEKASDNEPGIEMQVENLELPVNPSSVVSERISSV
TEST_DESCRIPTION: Binding affinity against 5-hydroxytryptamine 2C receptor using [125I]DOI radioligand.
pKi: −log10 of the molar value.
Would you mind labelling by pKi? At or over 7 is met, under is not met.

Check out these entries, answers already filled in.
MOLECULE | TARGET_SYSTEM | CATEGORY_LABEL
Cc1c2n(c3ccccc13)CCNCC2 | 5-hydroxytryptamine receptor 2C (Homo sapiens, UniProt P28335) | met
O=C(c1c2n(c3ccccc13)CCNCC2)C(F)(F)F | 5-hydroxytryptamine receptor 2C (Homo sapiens, UniProt P28335) | met
CCOc1ccccc1-c1ccc2c(c1)N1CCNCCC1C2 (configuration not stated) | 5-hydroxytryptamine receptor 2C (Homo sapiens, UniProt P28335) | not met
Fc1ccccc1-c1cc(Cl)cc2c1N1CCNCCC1C2 (configuration not stated) | 5-hydroxytryptamine receptor 2C (Homo sapiens, UniProt P28335) | not met
FC(F)(F)c1ccccc1-c1cccc2c1N1CCNCCC1C2 (single isomer, unassigned; (-)) | 5-hydroxytryptamine receptor 2C (Homo sapiens, UniProt P28335) | met

Check this molecule for pKi at or above 7: CCOc1ccccc1-c1cc(Cl)cc2c1N1CCNCCC1C2 (stereo in doubt; 22a)
met

Check this molecule for pKi at or above 7: Cc1ccccc1-c1cc(Cl)cc2c1N1CCNCCC1C2 (configuration not stated)
met

Check this molecule for pKi at or above 7: COc1ccc(Cl)cc1-c1cc(Cl)cc2c1N1CCNCCC1C2 (configuration not stated)
not met

Check this molecule for pKi at or above 7: `Cn1c2c(c3ccccc31)CCNCC2`
met

Check this molecule for pKi at or above 7: `CN1CCc2cc3ccccc3n2CC1`
met

Check this molecule for pKi at or above 7: `Clc1c2n(c3ccccc13)CCNCC2`
met

Check this molecule for pKi at or above 7: Clc1ccccc1-c1cccc2c1N1CCNCCC1C2 (configuration not stated)
met

Check this molecule for pKi at or above 7: Clc1ccc(-c2cc(Cl)cc3c2N2CCNCCC2C3)c(Cl)c1 (configuration not stated)
not met
